// data source = patent US6710017B2

- reported-conditions: human, 3 hours per day, 10 ppm
result-type: Margin of Exposure vs. RfD (Target > 1)
// print number alone

compound: COC(=O)c1ccccc1CS(=O)(=O)NC(=O)Nc1nc(OC)cc(OC)n1
Margin of Exposure vs. RfD (Target > 1): 2.7

compound: CC(C)OC(=O)Nc1cccc(Cl)c1
Margin of Exposure vs. RfD (Target > 1): 0.7

compound: COC(=O)c1ccccc1S(=O)(=O)NC(=O)Nc1nc(C)nc(OC)n1
Margin of Exposure vs. RfD (Target > 1): 3.3

compound: CCNc1nc(NC(C)C)nc(SC)n1
Margin of Exposure vs. RfD (Target > 1): 0.02

compound: CN(C)c1nc(=O)n(C2CCCCC2)c(=O)n1C
Margin of Exposure vs. RfD (Target > 1): 0.6

compound: CSc1nc(NC(C)C)nc(NC(C)C)n1
Margin of Exposure vs. RfD (Target > 1): 0.1

Qu. So what's the measured Margin of Exposure vs. RfD (Target > 1) for this one? `CC1(C)CON(Cc2ccccc2Cl)C1=O`
Ans. 0.02

Qu. Query (compound): `COc1nc(C)nc(NC(=O)NS(=O)(=O)c2ccccc2Cl)n1` ; field requested: Margin of Exposure vs. RfD (Target > 1)
Ans. 0.7

Qu. Data request, read-out Margin of Exposure vs. RfD (Target > 1), for CCc1cnc(C2=NC(C)(C(C)C)C(=O)N2)c(C(=O)O)c1 (stereo not drawn)
Ans. 3.3
